# System: NCI-H460
# assay.method.text: MTT cytotoxicity assay, 72 h
# Type: cell-based, human
# run.parameters: Homo sapiens, NCI-H460, -logIC50 in molar concentration, Table S2; read-out: Experimental pIC50 (NCI-H460) (converted)
This section presents compounds with their documented IC50 values.

>  <compound>
O=[N+]([O-])c1ccc(N2CCN(c3nc(Cl)nc4c3ncn4C3CCCC3)CC2)cc1 [7h]

>  <IC50, µM>
1.31

$$$$
>  <compound>
Clc1nc(N2CCN(c3ccccc3)CC2)c2ncn(C3CCCC3)c2n1 [7f]

>  <IC50, µM>
6.71

$$$$
>  <compound>
O=[N+]([O-])c1ccc(N2CCN(c3nc(Cl)nc4c3ncn4C3CCCC3)CC2)nc1 [7a]

>  <IC50, µM>
5.73

$$$$
>  <compound>
Clc1nc(N2CCN(c3ccncc3)CC2)c2ncn(C3CCCC3)c2n1 [7i]

>  <IC50, µM>
8.54

$$$$
>  <compound>
Clc1nc(N2CCN(c3cnccn3)CC2)c2ncn(C3CCCC3)c2n1 [7d]

>  <IC50, µM>
8.25

$$$$
